# System under test: PIK3CA (human) (UniProt P42336)
# Sequence (P42336 whole entry, looked up): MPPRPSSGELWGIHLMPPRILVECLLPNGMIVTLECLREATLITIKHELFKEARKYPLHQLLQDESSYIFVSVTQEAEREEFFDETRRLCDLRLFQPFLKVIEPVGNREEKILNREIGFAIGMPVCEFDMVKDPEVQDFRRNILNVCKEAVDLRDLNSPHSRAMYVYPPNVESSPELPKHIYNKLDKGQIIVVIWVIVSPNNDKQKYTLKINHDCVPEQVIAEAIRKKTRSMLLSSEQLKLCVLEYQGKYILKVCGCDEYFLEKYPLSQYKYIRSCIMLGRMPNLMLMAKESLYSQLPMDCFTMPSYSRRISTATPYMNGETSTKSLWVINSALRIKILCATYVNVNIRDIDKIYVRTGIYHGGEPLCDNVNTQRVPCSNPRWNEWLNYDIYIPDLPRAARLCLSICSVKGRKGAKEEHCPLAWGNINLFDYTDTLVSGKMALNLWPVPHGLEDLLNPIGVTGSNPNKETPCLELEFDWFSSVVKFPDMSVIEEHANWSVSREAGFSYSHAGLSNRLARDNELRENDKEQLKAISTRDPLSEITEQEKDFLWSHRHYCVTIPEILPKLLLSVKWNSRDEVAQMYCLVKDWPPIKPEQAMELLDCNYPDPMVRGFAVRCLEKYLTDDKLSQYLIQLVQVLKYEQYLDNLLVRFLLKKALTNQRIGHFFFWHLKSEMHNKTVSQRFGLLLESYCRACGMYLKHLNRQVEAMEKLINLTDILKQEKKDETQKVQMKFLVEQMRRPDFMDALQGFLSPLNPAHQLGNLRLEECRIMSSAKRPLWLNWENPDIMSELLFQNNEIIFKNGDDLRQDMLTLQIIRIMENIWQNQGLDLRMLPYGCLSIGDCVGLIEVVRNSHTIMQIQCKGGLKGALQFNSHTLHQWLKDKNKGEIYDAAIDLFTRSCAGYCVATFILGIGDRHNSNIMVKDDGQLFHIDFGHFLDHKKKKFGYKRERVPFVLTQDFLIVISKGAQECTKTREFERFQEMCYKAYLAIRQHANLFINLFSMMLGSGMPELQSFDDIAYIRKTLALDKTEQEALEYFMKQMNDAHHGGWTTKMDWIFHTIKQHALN
# Protocol description: Assessment of PIK3CA Kinase Activity Using One Step Solid Phase Assay
pIC50: −log10 of the molar value.
Recorded metric: pIC50

Example compounds with recorded pIC50:
{"Smiles structure": "Oc1cccc(-c2cc(Nc3ncccn3)nc(N3CCOCC3)n2)c1", "Endpoint result": "> 4.70"}
{"Smiles structure": "COC(=O)Oc1cccc(-c2cc(Nc3cccnc3)nc(N3CCOCC3)n2)c1", "Endpoint result": "> 4.70"}
{"Smiles structure": "Nc1cccc(-c2cc(Nc3cccnc3)nc(N3CCOCC3)n2)c1", "Endpoint result": "> 4.70"}
{"Smiles structure": "CN1CCCN(c2cc(-c3cccc(O)c3)nc(N3CCOCC3)n2)CC1", "Endpoint result": "> 4.70"}
{"Smiles structure": "Oc1cccc(-c2cc(NCCCn3ccnc3)nc(N3CCOCC3)n2)c1", "Endpoint result": "> 4.70"}

**Query** Give pIC50; test system PIK3CA (human) (UniProt P42336); compound CCOc1ccc(Nc2cc(-c3cccc(O)c3)nc(N3CCOCC3)n2)cc1
**Result** > 4.70

**Query** Give pIC50; test system PIK3CA (human) (UniProt P42336); compound c1cc(OCCN2CCCCC2)cc(-c2cc(Nc3ccc4[nH]ncc4c3)nc(N3CCOCC3)n2)c1
**Result** > 4.70

**Query** Give pIC50; test system PIK3CA (human) (UniProt P42336); compound COc1ccc(Nc2cc(-c3cccc(O)c3)nc(N3CCOCC3)n2)cc1OC1CCCC1
**Result** > 4.70

Measured values drawn from the Kinase Knowledgebase extract (Sharma et al. 2016) for this set.
